- experimental_system: KRAS (Homo sapiens)
- Construct: endogenous in cells; host or cells: KE39 (KRAS amplified) cells
- Sequence (P01116 1-188 isoform P01116-2): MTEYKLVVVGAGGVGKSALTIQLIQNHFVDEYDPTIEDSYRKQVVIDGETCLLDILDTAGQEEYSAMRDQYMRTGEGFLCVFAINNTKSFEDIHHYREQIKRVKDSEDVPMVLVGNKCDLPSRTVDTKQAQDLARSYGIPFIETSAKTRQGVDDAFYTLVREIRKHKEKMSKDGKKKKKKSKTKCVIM
- protocol: KRASamp MSD assay
- Assay type: cell-based
- assay_setup: KE39 (KRAS amplified) cells, treated with test compounds for 24 hr, MSD readout of KRAS degradation
quantity: DC50

Report DC50 for Cn1c(=O)n(C2CCC(=O)NC2=O)c2ccc(C3CCN(C4CC5(CCN(C(=O)OC[C@@H]6CC[C@]7(COc8nc(N9CCC[C@@](C)(O)C9)c9cnc(-c%10cc(O)cc%11ccc(F)cc%10%11)c(F)c9n8)CCCN67)CC5)C4)CC3)cc21 (stereo partly shown) tested on KRAS (Homo sapiens). < 1 nM

# iterate: C#Cc1c(F)ccc2cc(O)cc(-c3ncc4c(N5CCC[C@@](C)(O)C5)nc(OCC5(CN6CCC(N7CCC(c8cccc9c(C%10CCC(=O)NC%10=O)nn(C)c89)CC7)CC6)CC5)nc4c3F)c12 (stereo partly shown) 1 to 10 nM

# iterate: CCc1c(F)ccc2cc(O)cc(-c3ncc4c(N5CCC[C@@](C)(O)C5)nc(OC[C@@]56CCCN5[C@@H](COC(=O)N5CCC(CCOc7ccc8c(c7)n(C)c(=O)n8C7CCC(=O)NC7=O)CC5)CC6)nc4c3F)c12 (stereo partly shown) ≥ 10 nM

# iterate: CCc1c(F)ccc2cc(O)cc(-c3ncc4c(N5CCC[C@@](C)(O)C5)nc(OCC5(CN6CCN(CC7CCN(c8ccc9c(c8)n(C)c(=O)n9C8CCC(=O)NC8=O)CC7)CC6)CC5)nc4c3F)c12 (stereo partly shown) < 1 nM
